Protocol notes: Cell viability assay (AlamarBlue)
Stated conditions: human, HepAD38 cells
Reported endpoint: CC50 at 6 days

Answer with the recorded CC50 at 6 days for the molecule listed here: CN(C(=O)c1cnn2c1CN(C(=O)c1cc3c(Cl)c(F)ccc3[nH]1)CC2)C1(CO)CC1
> 10 µM

Answer with the recorded CC50 at 6 days for the molecule listed here: CN(CCOC(F)F)C(=O)c1cnn2c1CN(C(=O)c1cc3ccccc3[nH]1)CC2
> 10 µM

Answer with the recorded CC50 at 6 days for the molecule listed here: O=C(c1cc2ccccc2[nH]1)N1CCn2ncc(C(=O)N3CCC4CC43)c2C1 (centres unmarked)
> 10 µM

Answer with the recorded CC50 at 6 days for the molecule listed here: Cc1c(F)ccc2[nH]c(C(=O)N3CCn4ncc(C(=O)N5CCCOCC56CC6)c4C3)cc12
> 10 µM

Answer with the recorded CC50 at 6 days for the molecule listed here: O=C(c1cc2ccccc2[nH]1)N1CCn2ncc(C(=O)N3CC4CC4C3)c2C1 (centres unmarked)
> 10 µM

Answer with the recorded CC50 at 6 days for the molecule listed here: CN(C(=O)c1cnn2c1CN(C(=O)c1cc3ccccc3[nH]1)CC2)C1([C@H]2OC[C@H](N)CO2)CC1
> 10 µM

Answer with the recorded CC50 at 6 days for the molecule listed here: O=C(c1cc2c(Cl)cccc2[nH]1)N1CCn2ncc(C(=O)N3CCC(O)CC34CC4)c2C1 (centres unmarked)
> 10 µM

Answer with the recorded CC50 at 6 days for the molecule listed here: CN(C(=O)c1cnn2c1CN(C(=O)c1cc3c(F)ccc(F)c3[nH]1)CC2)C1(COC(F)F)CC1
> 10 µM
